target_or_test_system: Tyrosine-protein phosphatase non-receptor type 2 (Homo sapiens)
Sequence (P17706 whole entry): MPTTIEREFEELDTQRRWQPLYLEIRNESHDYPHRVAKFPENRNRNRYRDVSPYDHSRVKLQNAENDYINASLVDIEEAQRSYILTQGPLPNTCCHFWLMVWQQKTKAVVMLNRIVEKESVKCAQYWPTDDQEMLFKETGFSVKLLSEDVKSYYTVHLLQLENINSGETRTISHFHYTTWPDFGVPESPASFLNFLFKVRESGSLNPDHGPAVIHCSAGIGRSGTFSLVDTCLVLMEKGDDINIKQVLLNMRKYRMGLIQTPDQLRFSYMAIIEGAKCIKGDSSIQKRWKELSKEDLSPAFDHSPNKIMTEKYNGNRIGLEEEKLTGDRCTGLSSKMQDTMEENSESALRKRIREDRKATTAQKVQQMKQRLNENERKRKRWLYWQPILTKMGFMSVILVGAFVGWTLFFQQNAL
pIC50: −log10 of the molar value.
readout_type: pIC50

Some solved entries appear below for comparison.
INSERT INTO assay_data (mol_smiles, measurement) VALUES
  ('CC1CN(CCc2cc(O)c(N3CC(=O)NS3(=O)=O)c(F)c2)C1', 8.70),
  ('O=C1CN(c2c(O)cc(CCN3CC[C@@H](C(F)(F)F)C3)cc2F)S(=O)(=O)N1', 8.52);

(a) O=C1CN(c2c(O)cc(CCN3Cc4ccccc4C3)cc2F)S(=O)(=O)N1
(b) O=C1CN(c2c(O)cc(CCN3CCOCC3)cc2F)S(=O)(=O)N1
Which record shows the lower pIC50: the first, a , or the second, b ? Provide the label of your selected option as the answer.
b
